These entries and their values trace back to PubChem BioAssay (Tox21).

# Method Notes: qHTS RealTime-Glo MT Cell Viability Assay in HEK293 cells - 40 hour (AID 1224874); note: % is set by controls: 0 for no effect and ±100 for the full control effect; nearly all actives have a fitted effect of over 50% in size
# Assay Context: RealTime-Glo luminescence, hits give low values
Records with an inconclusive call do not appear.
Test Readout: max response (%)
Numbers only, in %.

compound=CCCCS test_readout="max response" recorded_measurement=0.118
compound=CCCCNCC test_readout="max response" recorded_measurement=-1.39
compound=Cc1ccc2ccccc2n1 test_readout="max response" recorded_measurement=18.8

Here are 3 compounds. What values of max response were reported for them?
1. CCCCCCCCCCCCCCCC(=O)OC
2. C=CCON/C(CCC)=C1\C(=O)CC(C)(C)C(C(=O)OC)=C1O
3. CCCC(C)C(O)CC (stereo not given)

Return:
[-0.62, 3.04, 14.3]

Here are 2 compounds. What values of max response were reported for them?
1. C=CC(=O)OCC[N+](C)(C)C
2. COc1ccc2cc(CCC(C)=O)ccc2c1

Return:
10.3
-11.3

Here are 7 compounds. What values of max response were reported for them?
1. CC(=O)Nc1ccc(S(=O)(=O)Nc2cc(C)on2)cc1
2. CC1(C)S[C@@H]2[C@H](NC(=O)Cc3ccccc3)C(=O)N2[C@H]1C(=O)O (tested in a mixture with another compound)
3. CCc1ccc(CC)cc1
4. N=C(N)N1CCc2ccccc2C1
5. COCc1nnc(-c2ccc[n+]([O-])c2)n1-c1c(Cl)c(Cl)cc2[nH]c(=O)c(=O)[nH]c12
6. C=CC(=O)CC
7. CCCCC(O)/C=C(C)/C=C/C=C/C(=O)N1CCCC1=O (stereo not given)

Return:
1. 0.358
2. -2.11
3. 4.78
4. 0.0826
5. -6.51
6. 0.33
7. 2.14

Here are 5 compounds. What values of max response were reported for them?
1. CCN1CCN(C(=O)N[C@@H](C(=O)N[C@@H]2C(=O)N3C(C(=O)O)=C(CSc4nnnn4C)CS[C@H]23)c2ccc(O)cc2)C(=O)C1=O
2. CCN(CC)CC
3. O=P(O)(O)C(O)(Cc1cccnc1)P(=O)(O)O
4. COC(C)(C)CC(C)=O
5. CC(C)(Sc1cc(C(C)(C)C)c(O)c(C(C)(C)C)c1)Sc1cc(C(C)(C)C)c(O)c(C(C)(C)C)c1

Return:
1: 15.1; 2: -12.9; 3: -1.75; 4: 1.4; 5: 3.52

Here are 3 compounds. What values of max response were reported for them?
1. O=c1c(O)c(O)c1=O
2. C[C@@H]1NC(=O)[C@@H](N)CNC(=O)[C@H](C2CCNC(N)=N2)NC(=O)/C(=C/NC(N)=O)NC(=O)[C@H](CNC(=O)C[C@@H](N)CCCN)NC1=O (stereo not given in full)
3. CN(C)CCc1c[nH]c2ccc(CS(=O)(=O)N3CCCC3)cc12

Return:
[-0.875, 0.0952, 7.03]

Here are 2 compounds. What values of max response were reported for them?
1. O=C(O)Cc1ccccc1Oc1ccc(Cl)cc1Cl
2. C[C@@H]1CC[C@@]2(OC1)O[C@H]1C[C@H]3[C@@H]4CC[C@H]5C[C@@H](O)CC[C@]5(C)[C@H]4CC(=O)[C@]3(C)[C@H]1[C@@H]2C

Return:
[4.29, -0.328]

###

# Method Notes: qHTS assay for small molecule disruptors of the mitochondrial membrane potential (AID 720635)
# Assay Context: HepG2 mitochondrial membrane potential, Mito-MPS dye ratio; series mostly up to 83.2 µM
Inconclusive results are not listed. Calls of active or inactive are those of the source. The call rests on the fitted dose curve; in most records, active means well fitted inhibition curve with a large enough effect in the signal ratio in the repeat runs; inconclusive means weak or mixed curves, or effect the other way; inactive means flat fitted curve, though single readings scatter; the % refers to the signal ratio.
Respond only with the outcome that fits, drawn from active, inactive

molecule=Nc1cc(S(=O)(=O)O)ccc1O discrete_label=inactive
molecule=CC1(C)C(=O)C(C)(C)C1=O discrete_label=inactive
molecule=CC(C)c1cc(C(C)C)cc(C(C)C)c1 discrete_label=inactive

Enquiry: Assay outcome for COC(=O)c1ccc(C(=O)O)cc1 : what was it?
Return: inactive

Enquiry: Consider next the molecule O=c1c(O)c(O)c1=O in the same way.
Return: inactive

Enquiry: Consider next the molecule CC(C)(C)C(=O)CCc1ccc(Cl)cc1 in the same way.
Return: inactive

Enquiry: Consider next the molecule CCCCCCCCC1CO1 (centres undefined) in the same way.
Return: inactive

Enquiry: Consider next the molecule O=C(c1ccccc1)c1cccc(O)c1 in the same way.
Return: active
